Target: AXL (human catalytic domain) (Homo sapiens)
Construct: purchased Upstate Ltd. 14-512
Experiment: AXL (human catalytic domain) Enzyme Activity Assay (IMAP fluorescence polarisation)
Type: biochemical
Conditions: further data set (WW-001 through WW-169, XX-001 through XX-469, YY-001 through YY-016, ZZ-001 through ZZ-003); 150 μM ATP
Procedure: Biological Methods AXL (human catalytic domain) Enzyme Activity Assay Reagents Kinase Assay Reaction Buffer: This consisted of 20 mM HEPES pH 7.0, 10 mM MgCl2, 1 mM DTT, […], 0.01% Triton X100 (v/v), and 0.01% BSA (w/v). All buffer components were purchased from Sigma-Aldrich at reagent grade or higher. […] ATP: Supplied by Sigma (product code A-7699). […] Final ATP concentration in the assay was 150 μM; this concentration represents the KM.ATP for this enzyme calculated in this assay. […]
IC50 for assorted compounds

Here is how some compounds turned out for IC50.
1. c1cc(-c2ccc3occc3c2)n2nc(Nc3ccc(OCCN4CCCC4)cc3)nc2c1 :: ≤ 100 nM
2. CCC(CC)Cn1cc(-c2cccc3nc(Nc4ccc(OCCN5CCCC5)cc4)nn23)cn1 :: ≤ 100 nM
3. O=C(NCc1cccc(-c2cccc3nc(Nc4ccc(OCCN5CCCC5)cc4)nn23)c1)Nc1cccc(Cl)c1 :: 1000 to 10000 nM
4. O=C(Nc1nc2cccc(-c3ccc(N4CCOCC4)nc3)n2n1)C1CC1 :: 1000 to 10000 nM
5. c1cc(-c2ccc3c(c2)OCCO3)n2nc(Nc3ccc(OCCCN4CCCC4)cc3)nc2c1 :: ≤ 100 nM

## Input Report IC50 for c1ccc(CNc2ccc(-c3cccc4nc(Nc5ccc(OCCN6CCCC6)cc5)nn34)cc2)cc1 tested on AXL (human catalytic domain) (Homo sapiens).
## Output 100 to 1000 nM

## Input Another compound: Cn1nccc1CNc1cccc(-c2cccc3nc(Nc4ccc(OCCN5CCCC5)cc4)nn23)c1
## Output ≤ 100 nM

## Input Continue with NCc1ccc(-c2cccc3nc(NC(=O)C4CC4)nn23)cc1
## Output 1000 to 10000 nM

## Input Do the same for Cc1ccc(-c2cccc3nc(NC(=O)C4CC4)nn23)cn1 please
## Output 1000 to 10000 nM

###

biological target: AXL (human catalytic domain) (Homo sapiens); construct: purchased Upstate Ltd. 14-512; assay: AXL (human catalytic domain) Enzyme Activity Assay (IMAP fluorescence polarisation); type: biochemical; conditions: further data set (WW-001 through WW-169, XX-001 through XX-469, YY-001 through YY-016, ZZ-001 through ZZ-003); 150 μM ATP
pIC50: −log10 of the molar value.
reported-property: pIC50

1) c1cc(-c2cnn(CC3CC3)c2)n2nc(Nc3ccc(OCCN4CCCC4)cc3)nc2c1 :: ≥ 7.00

Now consider a different compound.
## Input Param item = CCN(CC)CCOc1cccc(Nc2nc3cccc(-c4ccc5c(c4)OCCN5C)n3n2)c1 ; retrieve measured pIC50.
## Output 6.00 to 7.00

###

IC50 for assorted molecules
biological target: AXL (human catalytic domain) (Homo sapiens, UniProt P30530); construct: purchased Upstate Ltd. 14-512; experiment: AXL (human catalytic domain) Enzyme Activity Assay (IMAP fluorescence polarisation); type: biochemical; details: first data set; recombinant AXL isoform 1 aa473-894, 150 μM ATP
Sequence (P30530 473-894): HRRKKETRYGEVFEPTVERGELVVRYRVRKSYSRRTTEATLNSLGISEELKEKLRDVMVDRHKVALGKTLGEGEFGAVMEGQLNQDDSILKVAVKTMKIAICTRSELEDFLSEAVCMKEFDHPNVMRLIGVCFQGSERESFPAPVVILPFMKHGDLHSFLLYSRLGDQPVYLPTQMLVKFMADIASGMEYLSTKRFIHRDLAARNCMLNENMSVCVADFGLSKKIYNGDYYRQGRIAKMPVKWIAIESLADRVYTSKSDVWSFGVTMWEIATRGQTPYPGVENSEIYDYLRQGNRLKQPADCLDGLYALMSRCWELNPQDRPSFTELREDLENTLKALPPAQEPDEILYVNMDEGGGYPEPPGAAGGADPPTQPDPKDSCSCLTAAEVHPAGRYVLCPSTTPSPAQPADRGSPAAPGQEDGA

1. COc1ccc(-c2cccc3nc(Nc4ccc(OCCN(C)Cc5ccc(N)cc5)cc4)nn23)cc1 :: < 1000 nM

## Input Recorded IC50 for COc1ccc(-c2cccc3nc(Nc4cccc(OCCn5ccnc5)c4)nn23)cc1 , please?
## Output < 1000 nM

## Input Now try COc1ccc(-c2cccc3nc(Nc4ccc(N5CCOCC5)cc4)nn23)cc1 .
## Output 1000 to 10000 nM

## Input Repeat for the following molecule: O=C(Nc1nc2cccc(-c3ccc(NS(=O)(=O)c4ccccc4)cc3)n2n1)C1CC1
## Output 1000 to 10000 nM

## Input Same again, this time with O=C(Nc1nc2cccc(-c3ccc4ccccc4c3)n2n1)C1CC1
## Output < 1000 nM

## Input Next molecule: COc1ccc(-c2cccc3nc(Nc4ccc(S(N)(=O)=O)cc4)nn23)cc1
## Output 1000 to 10000 nM

## Input Field entry: COc1ccc(-c2cccc3nc(NC(=O)C4CCCC4)nn23)cc1
## Output 1000 to 10000 nM
